Tested on: K562
Test: NCI tumour cell line growth inhibition, 48 h
Activity calls are given as the source filed them. Rule as the data show it: active = GI50 up to about 1.1 µM and inactive = higher.
quantity: GI50

Would you please look over these solved cases?
molecule: Cc1ccc(C)n1-c1ccccc1C1SCCCS1
GI50: > 100 µM (inactive)

molecule: O=C(c1ccccc1)[C@H]1Nc2cnccc2C2c3ccccc3CC21 (stereo not given in full)
GI50: 3.14 µM (inactive)

molecule: CN(C)c1ccc(/C=C2\N=C(c3ccccc3)N(c3nc4ccc(Sc5ccccc5)cc4[nH]3)C2=O)cc1
GI50: 26.4 µM (inactive)

molecule: COc1ccc(/C=C/C(=N\NC(=O)c2ccccc2)c2sc(Nc3ccc([N+](=O)[O-])cc3)nc2C)cc1OC
GI50: 3.18 µM (inactive)

molecule: O=C(N/N=C(/c1ccccc1)C(F)(F)F)c1ccncc1
GI50: 35.1 µM (inactive)

molecule: COc1ccc(N2C(=O)/C(=C/c3ccc(N(CCC#N)CCC#N)cc3)N=C2c2ccccc2)c(OC)c1
GI50: 18.1 µM (inactive)

molecule: COc1ccc(N2C(=O)C3c4[nH]c5ccccc5c4C4CCC(C(C)(C)C)CC4C3C2=O)c(C)c1 (stereo not given)
GI50: > 100 µM (inactive)

molecule: CN(C)CCC(/C=C/c1ccccc1)=N\Nc1c(F)c(F)c(F)c(F)c1F
GI50: 39.4 µM (inactive)

molecule: CN1CCN(c2ccc3[nH]c(-c4ccc5[nH]c(-c6ccc(O)cc6)nc5c4)nc3c2)CC1
GI50: 23.3 µM (inactive)

# GI50 of "Nc1ccc(-c2cssc2=S)cc1" = 3.21 µM (inactive)

----------
Test system: RPMI-8226
Test: NCI tumour cell line growth inhibition, 48 h
Activity calls are given as the source filed them. Cut-off read from the data, not from the text of the source: active = GI50 up to about 1.1 µM and inactive = higher.
Response enum: active, inactive

compound: CCOCc1c(C)cc(C)c(C2C(C(=O)c3ccccc3)N3c4ccccc4C=CC3C2(C#N)C(=O)OCC)c1C (stereo not given)
group: inactive

*Q* Give the logged outcome of this assay for the following compound: "C(=C/c1ccc2nc(-c3ccc(/C=C/C=N/NC4=NCCCN4)cc3)cn2c1)/C=N/NC1=NCCCN1"
*A* active

*Q* Check the results log: what was the call for "O=C(/C=C/c1ccc(Cl)cc1)c1cccs1" ?
*A* inactive

----------
Tested on: RXF 393
Assay: NCI tumour cell line growth inhibition, 48 h
The source made the active and inactive calls. Cut-off read from the data, not from the text of the source: active = GI50 up to about 1.1 µM and inactive = higher.
quantity: GI50

smiles.string: CSc1cc(N)ccc1/N=N/c1ccc(S(N)(=O)=O)cc1
assay.value: 30.5 µM (inactive)

Input "Cc1ccc2c(c1CCCC(C)(C)O)C(=O)C(O)=C(C(C)C)C2=O" . Output GI50: 53.5 µM (inactive)

Notebook: "O=C1c2ccccc2-c2c1c1ccccc1c(=O)n2-c1ccccc1" , GI50 read as 4.59 µM (inactive)

----------
Measured GI50 by item
Tested on: KM12
Experiment: NCI tumour cell line growth inhibition, 48 h
Active and inactive are the calls of the source. Cut-off read from the data, not from the text of the source: active = GI50 up to about 1.1 µM and inactive = higher.

Please review the entries below; each comes with its answer.
molecule: O=[N+]([O-])c1cccc(-c2oc(/C=N/c3ccccc3)c([N+](=O)[O-])c2-c2cccc([N+](=O)[O-])c2)c1
GI50: > 100 µM (inactive)

molecule: COc1ccc(C2(CC(C)O)SCCCS2)cc1 (stereo not given)
GI50: > 100 µM (inactive)

molecule: COc1cc([C@@H]2c3cc4c(cc3[C@@H](/N=C/c3ccc(C(=O)O[C@H]5C[C@H]6OC[C@@]6(OC(C)=O)[C@H]6[C@H](OC(=O)c7ccccc7)[C@]7(O)C[C@H](OC(=O)[C@H](OC(=O)c8ccc(/C=N/[C@@H]9c%10cc%11c(cc%10[C@@H](c%10cc(OC)c(O)c(OC)c%10)[C@H]%10C(=O)OC[C@@H]%109)OCO%11)cc8)[C@@H](NC(=O)c8ccccc8)c8ccccc8)C(C)=C([C@@H](OC(C)=O)C(=O)[C@]56C)C7(C)C)cc3)C3COC(=O)C32)OCO4)cc(C)c1O (stereo not given in full)
GI50: 22.3 µM (inactive)

molecule: O=C1c2ccccc2-c2c1c1ccccc1c(=O)n2-c1ccccc1
GI50: 14.6 µM (inactive)

Please find the next molecule below.
Value of measured GI50 for the entry "C[C@@H](c1ccccc1)N1CO[C@@]2(C#Cc3ccc4c(c3)OCO4)CCC[C@@H]12" : 15.7 µM (inactive)

----------
Recorded GI50 by entry
System: Malme-3M
Experiment: NCI tumour cell line growth inhibition, 48 h
Calls of active or inactive are those of the source. Rule as the data show it: active = GI50 up to about 1.1 µM and inactive = higher.

The examples below pair each entry with its known result.
molecule: Nc1cc(Cl)cc2cc(Cl)cnc12
assay.value: > 100 µM (inactive)
//
molecule: O=C(c1ccccc1)[C@H]1Nc2cnccc2C2c3ccccc3CC21 (stereo partly specified)
assay.value: 12.9 µM (inactive)
//
molecule: C/C=C/CC(C(=O)OCC)(N(C)C(=O)OC(C)(C)C)S(=O)(=O)c1ccc(C)cc1 (stereo unspecified)
assay.value: > 100 µM (inactive)

Hey, Malme-3M data for CC(C)=CCCC1(C)C=Cc2c(c(C)cc3c2[nH]c2cc(O)ccc23)O1 (stereo unspecified) : GI50 came out at > 25 µM (inactive)

Bench note, Malme-3M: entry "O=C(Nc1cc(Cl)ccc1Cl)c1cc2cccc(Br)c2oc1=O" , its GI50 = > 100 µM (inactive)

The observed GI50 for "CCOC(=O)[C@H]1Nc2ccc(Cl)cc2[C@H]2OCC[C@@H]12" when tested with Malme-3M stands at > 100 µM (inactive)

----------
The following molecules are listed with their measured GI50 values.
Test system: RXF 393
Experiment: NCI tumour cell line growth inhibition, 48 h
Active and inactive are the calls of the source. Rule as the data show it: active = GI50 up to about 1.1 µM and inactive = higher.

molecule: COc1ccc2c(c1)CCc1c(C(C)=O)c3ccccc3n1C2
GI50: 22.8 µM (inactive)

molecule: Cn1c2ccccc2c(=O)c2ccc(Cl)cc21
GI50: > 10 µM (inactive)

molecule: Cc1cc(N(CCC#N)CCC#N)ccc1/N=N/c1cccc(C(=O)O)c1
GI50: > 100 µM (inactive)

Item CN1CCCC(OC(=O)c2cc3cc(CCl)ccc3oc2=O)C1 (stereo unspecified) was tested on RXF 393; the reported GI50 is 23.7 µM (inactive)

Record COc1ccccc1C1c2cc3c(cc2OC2(OC)COC(=O)C12)OCO3 (stereo unspecified) ; system RXF 393; GI50 = 12.3 µM (inactive)

"Cc1nc2ccc(Cl)cc2c(-n2ccnc2)c1CCn1ccnc1" on RXF 393 gives GI50 = 14.1 µM (inactive)

Tested system RXF 393; GI50 recorded for Cc1ccc2c(c1C)CC1(Cc3c(ccc4c3CCC4)C1=O)C2=O (stereo unspecified) was > 100 µM (inactive)

# lookup: "CC[C@@H](/C=C\CCC1(C[C@H](O)CCC=C(C)C)OCCO1)O[Si](C(C)C)(C(C)C)C(C)C" on RXF 393, GI50 = 17.3 µM (inactive)

----------
Tested on: NCI-H460
Assay: NCI tumour cell line growth inhibition, 48 h
The source made the active and inactive calls. No stated cut-off is given here; in the data, active = GI50 up to about 1.1 µM and inactive = higher.
quantity: GI50

Solved entries (count: 5):
compound: CN(C)CCCOC(=O)C(O)(Cc1ccccc1)C1CC1 (stereo unspecified)
assay.value: > 100 µM (inactive)
//
compound: CN1Cc2cc(O)c(O)cc2C(O)C1 (stereo unspecified)
assay.value: > 100 µM (inactive)
//
compound: CC(=O)OC(OC(C)=O)c1ncccc1C(=O)OC(C)C
assay.value: 11.3 µM (inactive)
//
compound: COc1cc(C2SCC(=O)N2c2ccc(NC(=O)c3ccc(N4C(=O)CSC4c4cc(OC)c(OC)c(OC)c4)cc3)cc2)cc(OC)c1OC (stereo unspecified)
assay.value: > 100 µM (inactive)
//
compound: COc1ccc(N2C(=O)C3c4[nH]c5ccccc5c4C4CCC(C(C)(C)C)CC4C3C2=O)c(C)c1 (stereo unspecified)
assay.value: > 100 µM (inactive)

The value of GI50 measured for the compound "NC1(c2cc3ccccc3s2)CCCC1" turned out to be 33.6 µM (inactive)

Memo: "O=C(NI1OC(=O)c2ccccc21)c1ccc(Cl)cc1" , reported GI50: > 100 µM (inactive)

Item: "Cc1ccc(/N=N/C(=N\c2ccc(Cl)cc2)c2ccc(N(CCC#N)CCC#N)cc2)cc1" | GI50: 18.1 µM (inactive)

Value of GI50 reported for the compound "CSc1cc(N)ccc1/N=N/c1ccc(S(N)(=O)=O)cc1" is 24.2 µM (inactive)

So, COC(COC(=O)N1CCN(C=O)CC1)C1=C(N2CC2)C(=O)C(C)=C(N2CC2)C1=O (stereo unspecified) ? Its GI50 was < 0.0278 µM (active)

Record "O=C(O)CCc1nc2cc3ccccc3cc2[nH]c1=O" . Reported GI50: > 100 µM (inactive)

Recorded GI50 (compound COC1=C(OC)C(O)(c2ccccc2)C1=O (stereo unspecified) ): > 100 µM (inactive)

----------
System: HCT-15
The reader will find reported GI50 values listed item by item below.
Respond numerically; units are µM and should not be typed.

The examples below pair each entry with its known result.
molecule: COC(COC(=O)N1CCN(C=O)CC1)C1=C(N2CC2)C(=O)C(C)=C(N2CC2)C1=O (stereo not given)
output.unit: µM
assay.value: 1.73

molecule: CCC1(O)CC(CCN(Cc2ccccc2)C(=O)OCc2ccccc2)C(OCc2ccccc2)C1O (stereo not given)
output.unit: µM
assay.value: 13.4

Form field, GI50 with HCT-15, item CCC1(c2ccc(N)cc2)CCC(=O)NC1=O (stereo not given) [AMINOGLUTETHIMIDE] : 2380

Here CCOCc1c(C)cc(C)c(C2C(C(=O)c3ccccc3)N3c4ccccc4C=CC3C2(C#N)C(=O)OCC)c1C (stereo not given) was tested on HCT-15, and its GI50 came to 44.2
